Target: T1, human CD28, full-length, expressed on transfected Expi293 cells (human, UniProt P10747 19-220)
T1 construct: whole, on cells
Assay: flow cytometry, 100 nM, Expi293 cells with human CD28

Binder: variant ICOSL IgV-Fc fusion N52T/N57K/Q100P (Fc fusion) DTQEKEVRAMVGSDVELSCACPEGSRFDLNDVYVYWQTSESKTVVTYHIPQTSSLEKVDSRYRNRALMSPAGMLRGDFSLRLFNVTPQDEQKFHCLVLSPSLGFQEVLSVEVTLHVAANFSVGSGGGGSEPKSSDKTHTCPPCPAPEAEGAPSVFLFPPKPKDTLMISRTPEVTCVVVDVSHEDPEVKFNWYVDGVEVHNAKTKPREEQYNSTYRVVSVLTVLHQDWLNGKEYKCKVSNKALPAPIEKTISKAKGQPREPQVYTLPPSREEMTKNQVSLTCLVKGFYPSDIAVEWESNGQPENNYKTTPPVLDSDGSFFLYSKLTVDKSRWQQGNVFSCSVMHEALHNHYTQKSLSLSPG
MFI: 88700 MFI

Reference for the values: patent US20230235012A1
